molecular target: T1, cynomolgous monkey CD25 (cynomolgous monkey); experiment: SPR (BIAcore), cynomolgous CD25
T1 construct: also called cmCD25; cm
readout.label: pKd
Lab note — pKd values are minus log10 of concentrations in M.

Given item Variant C51 (antibody, V domains shown) VH: QVQLVQSGAEVKKPGSSVKVSCKASGYTFTSYRMHWVRQAPGQGLEWMGYIKPNKGYTEYNQKFKDKATITADESTNTAYMELSSLRSEDTAVYYCARGGGVFDYWGQGTLVTVSS VL: DIQMTQSPSTLSASVGDRVTITCSASSKISYMHWYQQKPGKAPKLLIYTTSDLASGVPARFSGSGSGTEFTLTISSLQPDDFATYYCHQRSTYPLTFGQGTKVEVK , the value recorded as its pKd is 10.03

Given item Variant C50 (antibody, V domains shown) VH: QVQLVQSGAEVKKPGSSVKVSCKASGYTFTSYRMHWVRQAPGQGLEWMGYISPNSGYTEYNQKFKDKATITADESTNTAYMELSSLRSEDTAVYYCARGGGVFDYWGQGTLVTVSS VL: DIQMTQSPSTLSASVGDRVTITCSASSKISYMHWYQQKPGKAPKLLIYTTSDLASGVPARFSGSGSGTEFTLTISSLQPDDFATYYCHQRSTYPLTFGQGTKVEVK , the value recorded as its pKd is 10.59

Given item Variant C47 (antibody, V domains shown) VH: QVQLVQSGAEVKKPGSSVKVSCKASGYTFTSYRMHWVRQAPGQGLEWMGYIRPKKGYTEYNQKFKDKATITADESTNTAYMELSSLRSEDTAVYYCARGGGVFDYWGQGTLVTVSS VL: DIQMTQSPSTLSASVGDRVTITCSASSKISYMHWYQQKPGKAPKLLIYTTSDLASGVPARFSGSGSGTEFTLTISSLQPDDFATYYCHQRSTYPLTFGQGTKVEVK , the value recorded as its pKd is 10.00

Given item Variant C46 (antibody, V domains shown) VH: QVQLVQSGAEVKKPGSSVKVSCKASGYTFTSYRMHWVRQAPGQGLEWMGYIKPKSGYTEYNQKFKDKATITADESTNTAYMELSSLRSEDTAVYYCARGGGVFDYWGQGTLVTVSS VL: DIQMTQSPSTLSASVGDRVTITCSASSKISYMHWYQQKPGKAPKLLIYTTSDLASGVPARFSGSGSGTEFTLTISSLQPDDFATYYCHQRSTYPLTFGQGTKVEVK , the value recorded as its pKd is 10.96

Origin of values: patent US20200308290A1
